Listed next: entries and their corresponding Burkin Assay in Myotubes, α7 integrin LacZ reporter signal relative to DMSO.
System: α7 integrin (LacZ reporter in α7+/LacZ myotubes)
Assay: Myotube α7 integrin FDG assay (Burkin assay in myotubes, 96-well)
Format: cell-based, mouse
Details: myotubes, 1 uM
Answer with a number only.

Worked examples, 5 compounds total:
Could you tell me which Burkin Assay in Myotubes, α7 integrin LacZ reporter signal relative to DMSO is on file for O=C(CNC(=O)c1cccc(F)c1)N/N=C/c1cc(Br)ccc1OCc1ccccc1 ?
1.1434

// Burkin Assay in Myotubes, α7 integrin LacZ reporter signal relative to DMSO lookup, key: CC(C)c1ccc(NC(=O)CN2C(=O)c3ccccc3S2(=O)=O)cc1
0.9368

# query: Burkin Assay in Myotubes, α7 integrin LacZ reporter signal relative to DMSO of entry CCc1nc2ccccc2c(C(=O)NCc2ccccc2)c1C
0.8373

// Burkin Assay in Myotubes, α7 integrin LacZ reporter signal relative to DMSO lookup, key: N#Cc1ccc(OCC(O)CS(=O)(=O)c2ccccc2)cc1 (stereo not drawn)
0.9833

Need Burkin Assay in Myotubes, α7 integrin LacZ reporter signal relative to DMSO, item O=S(=O)(NC(=NC1CCCCC1)c1ccccc1F)c1ccccc1
1.101

API: the following record is the query input.
Tell me the measured Burkin Assay in Myotubes, α7 integrin LacZ reporter signal relative to DMSO of COc1ccc(CN2CCNC(=O)C2CC(=O)NCCc2c[nH]c3ccccc23)c(OC)c1 (stereo not drawn) , please.
0.8975
